assay: Metabolic stability in human liver microsomes assessed as intrisic clearance; format: ADME, Microsome; details: read-out: CLH
Property Name: microsomal CLint (µL/min/mg)
Your answer is read as µL/min/mg, so omit the unit and give the number.

Prompt: Return reported microsomal CLint; argument: COc1c(S(C)(=O)=O)ccc(O[C@@H](C)C(F)(F)F)c1C(=O)N1CC(c2ccccc2)C1
Completion: 2.7

###

experiment: Metabolic stability in rat liver microsomes assessed as intrisic clearance; format: ADME, Microsome; conditions: read-out: CLH
Property Name: microsomal CLint (µL/min/mg)
Your answer is read as µL/min/mg, so omit the unit and give the number.

Prompt: Return reported microsomal CLint; argument: COc1c(S(C)(=O)=O)ccc(O[C@@H](C)C(F)(F)F)c1C(=O)N1CC(c2ccccc2)C1
Completion: 60

###

Molecular target: Sodium- and chloride-dependent glycine transporter 1 (Rattus norvegicus, UniProt P28572)
Sequence (P28572 whole entry): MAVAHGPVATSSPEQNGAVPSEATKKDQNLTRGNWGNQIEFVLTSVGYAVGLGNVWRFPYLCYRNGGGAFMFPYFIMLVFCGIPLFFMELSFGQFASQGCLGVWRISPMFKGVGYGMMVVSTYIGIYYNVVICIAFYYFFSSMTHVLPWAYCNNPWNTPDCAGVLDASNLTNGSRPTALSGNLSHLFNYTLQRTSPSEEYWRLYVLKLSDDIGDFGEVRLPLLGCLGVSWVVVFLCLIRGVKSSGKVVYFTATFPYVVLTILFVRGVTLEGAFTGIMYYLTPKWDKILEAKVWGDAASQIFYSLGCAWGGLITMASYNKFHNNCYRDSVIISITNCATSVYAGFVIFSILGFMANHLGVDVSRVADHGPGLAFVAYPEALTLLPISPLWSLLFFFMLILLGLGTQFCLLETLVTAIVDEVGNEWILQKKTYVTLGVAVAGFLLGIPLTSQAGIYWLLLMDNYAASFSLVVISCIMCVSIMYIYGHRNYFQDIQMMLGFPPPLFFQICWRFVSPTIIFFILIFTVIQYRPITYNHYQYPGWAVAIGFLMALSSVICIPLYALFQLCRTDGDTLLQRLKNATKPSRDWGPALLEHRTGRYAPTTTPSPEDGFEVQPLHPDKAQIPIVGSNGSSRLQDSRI
Test: Inhibition of GlyT1 in rat primary cortical neurons assessed as reduction in radiolabeled glycine uptake by scintillation proximity assay
pIC50: −log10 of the molar value.
The label depends only on pIC50: y if it is at least 8, n if it is smaller.

For orientation, consider the following solved cases.
[
  {
    "Molecule": "COc1c(C#N)ccc(O[C@@H](C)C(F)(F)F)c1C(=O)N1Cc2cn(-c3ccc(F)cn3)nc2C1",
    "Target System": "Sodium- and chloride-dependent glycine transporter 1 (Rattus norvegicus, UniProt P28572)",
    "Group": "n"
  },
  {
    "Molecule": "COc1c(S(C)(=O)=O)ccc(O[C@@H](C)C(F)(F)F)c1C(=O)N1CC(c2ccccc2)C1",
    "Target System": "Sodium- and chloride-dependent glycine transporter 1 (Rattus norvegicus, UniProt P28572)",
    "Group": "n"
  },
  {
    "Molecule": "COc1c(S(C)(=O)=O)ccc(O[C@@H](C)C(F)(F)F)c1C(=O)N1CC(c2ncc(C(F)(F)F)cc2Cl)C1",
    "Target System": "Sodium- and chloride-dependent glycine transporter 1 (Rattus norvegicus, UniProt P28572)",
    "Group": "y"
  },
  {
    "Molecule": "C[C@H](Oc1ccc(C#N)c(Cl)c1C(=O)N1Cc2cn(-c3ccc(F)cn3)nc2C1)C(F)(F)F",
    "Target System": "Sodium- and chloride-dependent glycine transporter 1 (Rattus norvegicus, UniProt P28572)",
    "Group": "n"
  }
]

Prompt: Check the entry Cc1cc(-n2cc3c(n2)CN(C(=O)c2cc(C#N)ccc2OC(C)C)C3)ccn1 : does pIC50 equal or exceed 8?
Completion: n
